Data credit: PubChem BioAssay (NCI)

Tested on: SNB-75 CNS
ASSAY: NCI tumour cell line growth inhibition, 48 h
OBSERVATION TYPE: log10 of TGI (log10 of the value in µM)
Answers are given as log10 of TGI in µM.

Example entries and their recorded answers appear below.
COC(=O)c1ccccc1CC1Cc2cccc(C)c2C1=O (stereo not given) :: 1.94
COc1cc(C2c3cc4c(cc3[C@@H](Nc3ccccc3)C3COC(=O)[C@H]23)OCO4)cc(OC)c1O (stereo not given in full) :: 0.90
COc1ccc(N2C(=O)C3c4[nH]c5cc(C)ccc5c4C4CCC(C(C)(C)C)CC4C3C2=O)cc1 (stereo not given) :: 0.78
O=[N+]([O-])c1cccnc1N=Nc1c(O)[nH]c2ccccc12 :: 1.65
Cc1cc(C(=O)CSC(=S)SC(C)(C)C)ccc1Cl :: 1.73
COc1ccc(-c2cc(=O)oc3c4c(ccc23)OCN(Cc2ccc(F)cc2)C4)cc1 :: 1.40
C=CCn1c(=O)ccn(/C(=C/C(=O)OCC)C(=O)OCC)c1=O :: 1.48

API: the following record is the query input.
In: GET /values?readout=log10 of TGI&item= `C=C(CN(C)Cc1ccccc1)c1ccc(NC(=O)c2ccc(C(=C)CN(C)Cc3ccccc3)cc2)cc1`
Out: 1.51

---

Task for the reader: assign each of the following molecules its reported TGI.
Tested on: SW-620 colon
ASSAY: NCI tumour cell line growth inhibition, 48 h

Cc1cc2c(cc1C)[n+](=O)cc(C(=O)C/C(=N/NC(=S)NN)C(=O)Nc1cccc(C(F)(F)F)c1)n2[O-] :: > 100 µM
CCc1n[nH]c(=O)n1-c1ccc2ccccc2c1 :: > 100 µM

State recorded TGI for all listed molecules.
1. CCCCOCCOC1=C(Cl)C(=O)c2c(O)ccc(O)c2C1=O
2. COc1cc(C2c3cc4c(cc3[C@@H](Nc3ccccc3)C3COC(=O)[C@H]23)OCO4)cc(OC)c1O (stereo partly drawn)
3. CC[C@]1(O)C[C@H]2CN(CCc3c([nH]c4ccccc34)C(C(=O)OC)(c3cc4c(cc3OC)N(C)[C@H]3[C@@](O)(C(=O)OC)[C@H](OC(C)=O)[C@]5(CC)[C@@H]6C[C@@H]6CN6CC[C@]43[C@@H]65)C2)C1 (stereo partly drawn)
4. COc1c(C)c(OCC=C(C)C)cc(CO)c1CO
5. N#CC(c1ccccc1)N(CCOCCOCCN(C(=O)c1ccccc1)C(C#N)c1ccccc1)C(=O)c1ccccc1 (stereo not drawn)

Out:
1: 0.387 µM; 2: > 42.9 µM; 3: > 14.3 µM; 4: > 100 µM; 5: > 100 µM

In: Query (molecule): `Cc1cc(C)nc(NS(=O)(=O)c2ccc(Nc3c4ccccc4nc4c(C(=O)N5CCN(CCO)CC5)cccc34)cc2)n1` ; field requested: TGI
Out: > 100 µM

---

Test system: COLO 205 colon
ASSAY: NCI tumour cell line growth inhibition, 48 h
Would you kindly list TGI for each of these compounds?

Example results:
CC(C)Oc1cccc(N2C(=NCc3c[nH]c4ccccc34)Nc3ccncc3S2(=O)=O)c1 :: 29.4 µM
CNCCCNc1ccnc2cc(Cl)ccc12 :: 27.4 µM
CN(C)CCNC(=O)Cc1ccccc1Nc1c(Cl)cccc1Cl :: 30.6 µM
COc1ccc2oc(=N)c(C(=O)Nc3ccccc3)cc2c1 :: > 100 µM
CN1Nc2ccccc2CC1=O :: > 100 µM

Could you tell me TGI for each of these compounds? They are listed below.
1. COc1ccc(/C=N/NC(=O)c2ccc(O)c(CN(C)C)c2)cc1
2. O=C1c2cccc3cccc(c23)C(=O)N1CCN(CCO)CCO

Out:
1: > 100 µM; 2: 30.2 µM

Please supply TGI for each of the following items, keeping them in order.
1. Clc1sc(Cl)c2c1[C@@H](Cl)C[C@@H]2Br
2. COc1ccc(-c2c(C#N)c(N3CCOCC3)nc3[nH]c(=S)[nH]c(=S)c23)cc1OC
3. COC(=O)c1c(C)cc(OC)c(C/C=C(\C)CCCc2coc(C=C(C)C)c2)c1OC
4. COC(=N)c1csc(C2OC(CO)C(O)C2O)n1 (stereo unspecified)

Out:
["> 100 µM", "> 100 µM", "> 100 µM", "> 100 µM"]
